- Test system: Escherichia coli TOP10
- ASSAY_INFO: shrunken log2 fold change of peptide-encoding DNA abundance (4.5 h post-induction vs induction); higher = less antimicrobial activity (less host growth inhibition)
- CONDITION_SUMMARY: time post-induction: 4.5 h; library: site-saturation at positions 5, 18, 19, 20
Class (required): determined from shrunken log2 fold change; valid ranges are bottom end = under -0.09, midrange = from -0.09 up to 0.3, top end = 0.3 and over

Below, 3 sequences whose answers are already recorded.
RRIRYRPPRLPRPRPRPSEHPRP    bottom end
RRIRLRPPRLPRPRPRPENRPRP    midrange
RRIRDRPPRLPRPRPRPHIKPRP    bottom end

Input line: Hi there! Could you help me figure out the category for `RRIRGRPPRLPRPRPRPHGGPRP` please?
Output line: top end

Input line: Try this sequence next: `RRIRWRPPRLPRPRPRPEKHPRP`
Output line: top end

Input line: Try this sequence next: `RRIRVRPPRLPRPRPRPPYAPRP`
Output line: midrange

Input line: Try this sequence next: `RRIRDRPPRLPRPRPRPWDYPRP`
Output line: midrange

Input line: Try this sequence next: `RRIRFRPPRLPRPRPRPSFMPRP`
Output line: bottom end

Input line: Try this sequence next: `RRIRNRPPRLPRPRPRPWWWPRP`
Output line: top end

Input line: Try this sequence next: `RRIRGRPPRLPRPRPRPAPGPRP`
Output line: top end

Input line: Try this sequence next: `RRIRMRPPRLPRPRPRPVTMPRP`
Output line: midrange

Input line: Try this sequence next: `RRIRTRPPRLPRPRPRPSMGPRP`
Output line: bottom end

----------
- System: Escherichia coli TOP10
- ASSAY_INFO: shrunken log2 fold change of peptide-encoding DNA abundance (4.5 h post-induction vs induction); higher = less antimicrobial activity (less host growth inhibition)
- CONDITION_SUMMARY: time post-induction: 4.5 h; library: site-saturation at positions 5, 18, 19, 20
READOUT_LABEL: shrunken log2 fold change
Give the value as a plain number.

Example cases with answers are listed next.
RRIRHRPPRLPRPRPRPMECPRP    -0.427
RRIRLRPPRLPRPRPRPKRNPRP    0.225
RRIRRRPPRLPRPRPRPPLSPRP    0.996
RRIRPRPPRLPRPRPRPRDQPRP    0.0809

Now take the following sequence into account.
Input line: Reported shrunken log2 fold change for `RRIRRRPPRLPRPRPRPAQYPRP` : what is it?
Output line: 0.34

----------
- Tested on: Escherichia coli TOP10;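 also: peptides expressed intracellularly from a pBAD plasmid library in pooled LB shake-flask culture, induced with 0.3% L-arabinose, DNA abundance read by NGS, three biological replicates, DESeq2 with apeglm shrinkage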
- ASSAY_INFO: shrunken log2 fold change of peptide-encoding DNA abundance (4.5 h post-induction vs induction); higher = less antimicrobial activity (less host growth inhibition)
- CONDITION_SUMMARY: time post-induction: 4.5 h; library: site-saturation at positions 5, 18, 19, 20
READOUT_LABEL: shrunken log2 fold change
Give the value as a plain number.

Example cases with answers are listed next.
RRIRIRPPRLPRPRPRPLRRPRP    0.0866
RRIRMRPPRLPRPRPRPTSPPRP    0.278
RRIRYRPPRLPRPRPRPAFMPRP    -0.658
RRIRDRPPRLPRPRPRPDACPRP    0.52
RRIRHRPPRLPRPRPRPDDIPRP    -0.0131
RRIRDRPPRLPRPRPRPKISPRP    -0.203

Input line: Reported shrunken log2 fold change for `RRIRYRPPRLPRPRPRPYTFPRP` : what is it?
Output line: 0.041

Input line: Try this sequence next: `RRIRRRPPRLPRPRPRPFACPRP`
Output line: 0.152

Source of measurements: the supplement of paper PMC9112550
